biological target: PRMT5 F225M (Homo sapiens, UniProt O14744, F327M); construct: His6; made in house; host or cells: bacteria (E. coli BL21(ED3) for the wild type); experiment: Radioactive methyltransferase assay, mutant PRMT5; type: biochemical; conditions: F225M mutant PRMT5, SmD3 substrate, Fig 4D
Sequence (O14744 whole entry F327M): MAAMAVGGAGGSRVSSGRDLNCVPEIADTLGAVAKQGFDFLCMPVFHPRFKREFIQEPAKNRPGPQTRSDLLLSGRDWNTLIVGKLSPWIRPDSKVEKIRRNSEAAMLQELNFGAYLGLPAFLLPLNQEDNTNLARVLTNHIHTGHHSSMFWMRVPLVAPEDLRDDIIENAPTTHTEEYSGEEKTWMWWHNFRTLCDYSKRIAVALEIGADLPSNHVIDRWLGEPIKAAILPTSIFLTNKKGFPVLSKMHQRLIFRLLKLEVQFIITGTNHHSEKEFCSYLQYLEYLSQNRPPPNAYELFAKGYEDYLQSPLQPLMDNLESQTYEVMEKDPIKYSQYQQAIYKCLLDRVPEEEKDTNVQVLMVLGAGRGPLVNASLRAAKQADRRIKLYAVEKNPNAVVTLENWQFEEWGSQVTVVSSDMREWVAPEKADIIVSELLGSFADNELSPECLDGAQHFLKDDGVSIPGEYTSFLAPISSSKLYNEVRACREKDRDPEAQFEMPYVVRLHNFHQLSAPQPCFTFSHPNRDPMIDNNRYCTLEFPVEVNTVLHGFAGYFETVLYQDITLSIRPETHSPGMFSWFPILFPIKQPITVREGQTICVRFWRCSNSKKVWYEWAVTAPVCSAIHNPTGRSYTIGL
Assign log10(IC50) to each entry below.
Note: values are log10 of IC50 expressed in µM.

Fill in the blank: the reported log10(IC50) of "Cc1ccnc(NC(=O)c2ccc(COc3ccc(Cl)cc3)o2)c1" is ____.
0.70

What does the record list as log10(IC50) for "COc1ccc(Nc2ncnc3c2cnn3Cc2ccc(C)cc2)cc1" ?
1.65

Please look up its log10(IC50): "Cn1cc(C(c2ccc(O)c(O)c2O)c2cn(C)c3ccccc23)c2ccccc21"
1.74

If you can, please state the reported log10(IC50) value of "CCc1ccc(-c2cn3c4ccccc4nc3n2CCN2CCOCC2)cc1" .
0.85

Item "CCn1c(=O)[nH]c2cc(C(=O)Nc3ccc(OC)cc3)ccc2c1=O" has what recorded log10(IC50)?
0.54

---

target: PRMT5 (Homo sapiens); construct: His6; made in house; host or cells: E. coli BL21(ED3) [sic]; experiment: Radioactive methyltransferase assay, PRMT5; format: biochemical; conditions: wild type PRMT5, SmD3 substrate, Fig 4D; read-out: IC50 (μM) PRMT5
READOUT NAME: IC50 (µM)
Give the quantity in µM, number only.

For the compound shown here, CCn1c(=O)[nH]c2cc(C(=O)Nc3ccc(OC)cc3)ccc2c1=O [Compound C5] , give the reported IC50.
0.8

---

test system: A549 cells; test: Cell growth by cell counting, A549; type: cell-based; details: Homo sapiens; A549 cells
READOUT NAME: IC50

Reported IC50, compound COc1ccc(Nc2ncnc3c2cnn3Cc2ccc(C)cc2)cc1 [Compound C9] : ____
~1 µM

---

biological target: PRMT5 (Homo sapiens, UniProt O14744); construct: His6; made in house; host or cells: E. coli BL21(ED3) [sic]; experiment: Radioactive methyltransferase assay, PRMT5; format: biochemical; settings: methylation of SmD3 by PRMT5; Table 1 prints no unit, μM; read-out: IC50
Sequence (O14744 whole entry): as the sequence (O14744 whole entry F327M) above, with M327F counted along it
READOUT NAME: log10 of IC50 (log10 of the value in µM)
Reminder: these figures are log10 of reported IC50, in µM before transformation.

Data request, read-out log10 of IC50, for "Cc1ccnc(NC(=O)c2ccc(COc3ccc(Cl)cc3)o2)c1"
-1.00

So what's the measured log10 of IC50 for this one? "Nc1c(C(=O)Nc2ccccc2)sc2nc3c(cc12)CCC3"
-0.22

Need log10 of IC50, item "O=C(Nc1nccs1)c1ccc(COc2ccc(F)cc2)o1"
0.40

For the compound "CCc1ccc(-c2cn3c4ccccc4nc3n2CCN2CCOCC2)cc1" , what log10 of IC50 is on record?
-0.30

Endpoint output: log10 of IC50 of "Nc1cccc(Nc2ncnc3c2cnn3Cc2ccccc2)c1" . Value?
-0.15

# query: log10 of IC50 of entry "CCn1c(=O)[nH]c2cc(C(=O)Nc3ccc(OC)cc3)ccc2c1=O"
-0.12

Which value of log10 of IC50 has been reported for "COc1nc(Nc2ccc(-c3nc4ccccc4o3)cc2)nc(OC)n1" in the records?
-0.30

// returns reported log10 of IC50 for input "Cn1cc(C(c2ccc(O)c(O)c2O)c2cn(C)c3ccccc23)c2ccccc21"
-0.52
